Tested on: A673/TR/shEF
protocol text: cell viability (LOESS-normalised, relative to median of negative controls) (log2 ratio); higher = more viable cells (less compound effect), active = hit call of the paper (over 3 MAD below the median)
conditions: 0.25 µM; library screen: screen1; EWS-FLI1 expression: high (no doxycycline); treatment time: 72 h
Among all 3,200 compounds or so, about 300 (9.4%) showed activity. What follows is part of a selection rich in actives, with near analogues and random picks from the rest.
Please assign Not met whenever cell viability (log2) is at or above 0.07, and Met whenever it is below.

molecule	answer label
Brc1ccc(CN2CCNCC2)cc1	Met
NCCc1ccc(O)cc1	Met
CN1C[C@@H](CO)C=C2c3cccc4[nH]cc(c34)C[C@@H]21	Met
N#C[C@H](O[C@@H]1O[C@H](CO[C@@H]2O[C@H](CO)[C@@H](O)[C@H](O)[C@H]2O)[C@@H](O)[C@H](O)[C@H]1O)c1ccccc1	Not met
CNC(=O)O/N=C(\C)SC	Met
COc1ccc(C(c2ccc(OC)cc2)C(Cl)(Cl)Cl)cc1	Not met
C/C=C(/C)C(=O)O[C@H]1CC[C@@]2(C)[C@@H]3CC[C@H]4[C@]5(O)C[C@H](O)[C@@]6(O)[C@@H](CN7C[C@@H](C)CC[C@H]7[C@@]6(C)O)[C@]5(O)C[C@@]42O[C@]13O	Not met
COc1ccc(C(=O)OC2CCC3(C)C4CCC5[C@]6(O)C[C@H](O)[C@@]7(O)C(CN8CC(C)CCC8[C@@]7(C)O)[C@]6(O)C[C@@]53O[C@]24O)cc1OC (some centres undefined)	Met
